attribute_measured: melting point

// worked examples, melting point included
molecule | attribute_measured | value_observed
O=C(O)Cn1c(-c2ccccc2)c(Cc2nc3c(F)c(F)cc(F)c3s2)c2ccccc21 | melting point | 238 to 239 °C
CCN(C)c1nc2cc(NC(=O)OC(C)(C)C)ccn2n1 | melting point | 181 to 183 °C
O=C(O)Cc1ccc(-c2nc3cccc(Cl)c3o2)cc1 | melting point | 205 to 210 °C
O=C(c1ccccc1)C(c1ccc(Cl)cc1Cl)C(F)n1cncn1 (stereo not given) | melting point | 104 to 108 °C

Next up:
Tell me the measured melting point of CSC1C(=O)Nc2c(Oc3ccccc3)cccc21 (stereo not given) , please.
149 to 150 °C

###

attribute_measured: melting point (°C)
Give the value, in units of °C, as a plain number.

molecule | readout_units | value_observed
Cc1cccc(CC(=O)N2C[C@@H]3C(=O)CCC(c4ccccc4)(c4ccccc4)[C@@H]3C2)c1 (racemic) | °C | 184

Next up:
Tell me the measured melting point of CN1CCC(N(C)c2nc(Nc3ccc(O)c(Cl)c3)nc(NC3CCCCCC3)n2)CC1 , please.
68

###

Here, each record is paired with measured melting point data.

// worked examples, melting point included
compound | melting point
C#CCn1c(=O)c2cc(Cl)ccc2c2ccc(Cl)cc21 | 248 to 250 °C
COC[C@H]1CCCN1C(=O)c1cc(-c2ccccc2)c(=O)n2ccc3ccc(Cl)cc3c12 | 137 to 140 °C
COc1ccc(-c2ccc3c(c2)C(=O)NC3=O)c2c1OCCO2 | 285 to 287 °C

Tell me the measured melting point of COCc1ccc(Cc2cccc(-c3c(O)c4ccc(Cl)cc4[nH]c3=O)c2)cc1 , please.
276 to 278 °C

Then what about the compound CCOC(=O)C(C)Oc1ncn(-c2ccc(Cl)cc2)n1 (stereo not given) ?
62 to 64 °C

Then what about the compound O=C1N(CC2CCCO2)c2cc3c(cc2C12COc1cc4c(cc12)CCO4)OCCO3 (stereo not given) ?
220 to 225 °C

###

Here, each record is paired with measured melting point data.

compound | melting point
CN1CCN(c2c(F)c(N)c3c(=O)c(C(=O)O)cn(C4CC4)c3c2F)CCC1=O | 281 to 283 °C
CN(C)CCNC(=O)c1ccc(-c2ccc3nnn(Cc4ccc5ncccc5c4)c3n2)cc1F | 122 to 125 °C
CCC(CC)Nc1cc(-c2c(-c3cccc(C)c3)nc3cccnn23)ccn1 | 155 to 156 °C
CC(=O)OCC1CCn2c(c(C3=C(c4cn(C)c5ccc(Br)cc45)C(=O)OC3=O)c3ccccc32)C1 (centres undefined) | 215 to 220 °C
CCc1oc2ccccc2c1C(=O)N(C)Cc1ccc2cc(O)ccc2c1 | 80 to 90 °C
O=C(Nc1cccnc1)N1CCN(c2cc(-c3cccc(F)c3F)ncn2)CC1 | 179 to 180 °C

Tell me the measured melting point of COc1cc(CSc2nc3cnccc3[nH]2)cc(OC)c1 , please.
177 to 179 °C

Then what about the compound Cc1nn(C)c2c(-c3ccc(OC(F)(F)F)cc3)nc(-c3ccc(F)cc3)nc12 ?
170 to 172 °C

Then what about the compound Cc1[nH]c2ccc(O)cc2c1C(=O)NC1CCN(CCCc2ccccc2)CC1 ?
181 to 184 °C

###

attribute_measured: melting point

// worked examples, melting point included
compound | value_observed
CCOC(=O)CCc1c(OCCCCCCc2ccc(OC)cc2)ccc2c(=O)c3cc(C(=O)OC)ccc3oc12 | 108 to 109 °C
COc1c(Br)c(-c2cc(C(C)C)n(C)n2)cc2oc(=O)c(C)c(C)c12 | 177 to 179 °C
CCC(=O)N1N=C(c2ccc([N+](=O)[O-])cc2)c2cc3c(cc2CC1C)OCO3 (centres undefined) | 189 to 190 °C

Next up:
Tell me the measured melting point of NS(=O)(=O)c1cccc(NC(=O)c2cnn3c(C(F)(F)F)cc(-c4ccc(F)c(F)c4)nc23)c1 , please.
275 °C

###

Here, each record is paired with measured melting point data.

// worked examples, melting point included
compound | value_observed
CCc1c(Cl)ccc2c1C=C(C(=O)O)C(C(F)(F)F)O2 (stereo not given) | 172 °C
O=C(OCC(F)(F)F)c1ncn2c1CN=C(c1ccccc1F)c1cc(Br)ccc1-2 | 223 to 224 °C
Cn1ccnc1COc1ccc(-c2cc(-c3c[nH]nc3-c3ccccn3)ccn2)cc1 | 112 °C
CCCNC(=O)N(C)C1CCN(c2ncnc3cc(OC)c(OC)cc23)CC1 | 209 to 211 °C
O=CNC1=NN(c2ccc(F)cc2)C(c2ccccc2)C1 (stereo not given) | 158 to 160 °C
COC(=O)C(O)=CC(=O)c1ncnc2c1ncn2Cc1ccccc1 | 166 to 167 °C
O=C1C2C(C(=O)N1c1ccccc1S)C1(Cl)C(Cl)=C(Cl)C2(Cl)C1(Cl)Cl (stereo not given) | 195 to 198 °C
Cn1c(-c2ccc(-c3ccccc3)cc2)cnc1[C@H](Cc1ccccn1)N(C=O)c1cc2cc(Br)ccc2o1 | 180 to 182 °C
O=C1Nc2cccc(F)c2C(=O)N2CC=C[C@@H]12 | 238 to 240 °C

Tell me the measured melting point of CN(CCO)C(=O)NC(CS)Cc1ccccc1 (single isomer, unassigned; (+)) , please.
86 °C

###

attribute_measured: melting point

// worked examples, melting point included
molecule | melting point
Nc1ccccc1C(=O)C1CCC1 | 55 °C
N#CCCCOc1ccc(C(=O)O)cc1 | 193 to 194 °C
CC(C)c1nc(CC#N)n(C)c1Sc1cc(Cl)cc(Cl)c1 | 103 to 105 °C
CCNC(=O)N1CCN(c2ccc(NC(=O)c3cc(=O)c4cc(F)cc(N5CCN(C)CC5)c4o3)cc2)CC1 | 236 to 238 °C
CCC(CO)(c1cccs1)N(C)C (stereo not given) | 66 to 68 °C
CCCCCCCCCCCCCCCCCC(=O)ON1C(C)(C)CC(OC(C)=O)CC1(C)C | 55 to 58 °C
COc1ccc(Cn2ccnc2C=Cc2ccc([N+](=O)[O-])o2)cc1 | 151 to 152 °C
N#Cc1c(Br)c(Br)n(C(=O)Oc2ccccc2)c1Br | 128 to 129 °C
CCCCCCCCCCCCCCN(c1ccccc1)c1snnc1C(N)=O | 79 to 81 °C

Next up:
Tell me the measured melting point of COc1cccc(OC)c1CNC(=O)Cc1c(-c2ccccc2C)c2cc(Cl)ccc2oc1=O , please.
194 to 196 °C

###

Here, each record is paired with measured melting point data.

// worked examples, melting point included
compound | melting point
CC(=O)N1Cc2cccc3c2c(cn3C)C1 | 125 to 126 °C
C[Si](C)(C)CCOCn1cc(C#N)c(=O)c2cc(N)c(N)cc21 | > 300 °C
CN1CC=C(C2=Nc3cc(Cl)ccc3Oc3ccc(Cl)cc32)CC1 | 166 to 167 °C

Tell me the measured melting point of COc1ccc(OC)c2c(C#C[Si](C)(C)C)c3ccccc3nc12 , please.
110 to 111 °C

Then what about the compound CC(=O)NC1CC(n2cc(C=CBr)c(=O)[nH]c2=O)OC1CBr (stereo not given) ?
178 to 180 °C

Then what about the compound O=C(N[C@H](Cc1ccccc1)C(=O)O)OCc1ccc2oc(Cc3ccccc3)cc2c1 ?
201 to 204 °C

Then what about the compound Cc1cn(C(C)C(=O)c2ccc(Cl)cc2)c(=O)n1-c1ccc(N2CCN(c3ccc(O)cc3)CC2)cc1 (stereo not given) ?
230 °C

Then what about the compound CSc1nn(-c2c(Cl)cc(Cl)cc2Cl)c(N(C)C)c1CC1C(=O)NC(=O)c2ccccc21 (stereo not given) ?
186 to 187 °C

Then what about the compound CC(C)Oc1cc([N+](=O)[O-])c(F)cc1C#N ?
116 to 118 °C

Then what about the compound CC(C)(C)OC(=O)Nc1cc(CC#N)c(I)cc1[N+](=O)[O-] ?
124 to 126 °C

###

attribute_measured: melting point

Tell me the measured melting point of CC(=O)NC1(c2ccccc2)CCN(CCC(CN2C(=O)c3ccccc3C2=O)c2ccc(Cl)c(Cl)c2)CC1 (stereo unspecified) , please.
83 to 85 °C

###

Here, each record is paired with measured melting point data.

compound | melting point
Cc1ccc(-c2ccc(S(C)(=O)=O)cc2)n1-c1ccc(-c2nccs2)cc1 | 190 to 191 °C
CCCc1c(O)ccc2c(=O)cc(CCC(=O)OCC)oc12 | 127 to 128 °C
CCC(=O)C(O)(Cc1ccc(C)cc1)c1ccc(N2CCOCC2)cc1 (stereo not given) | 160 °C
COC(=O)c1[nH]cc(Cc2ccsc2)c1N | 108 to 110 °C
COc1cc(C)nc(-n2cccn2)n1 | 52.5 to 53 °C
COCCNC(=O)c1cccc(-c2cccc3c(C)c(Cc4cccc(C(F)(F)F)c4)sc23)c1 | 135 to 136 °C

Tell me the measured melting point of C#CCN1CCCc2ccc(OC(=O)Nc3ccc(Cl)cc3)cc21 , please.
160 °C

Then what about the compound O=C(OCC1CC1)c1ncn2c1[C@@H]1CCCN1C(=O)c1cc(Cl)ccc1-2 ?
146 to 148 °C

Then what about the compound CC(=O)OCC(=O)Nc1cccc(-c2nnc(C(c3ccc(Cl)cc3)c3c(Cl)ccc(-n4ncc(=O)[nH]c4=O)c3Cl)o2)c1C (stereo not given) ?
206 °C

Then what about the compound COC(=O)C1=C(C)Nc2nccn2C1c1ccccn1 (stereo not given) ?
224 to 226 °C
